# protocol_details: in vivo
# assay_conditions: rat, ip, rats, intraperitoneal route, read-out: DL50 (limit of error 95%)

compound | LD50 / mg/kg
COc1cc(C(=O)OCC(C)c2ccc(CC(C)C)cc2)cc(OC)c1OC (stereo not shown) | 193

----------
# protocol_details: in vivo
# Type: in vivo
# assay_conditions: mouse, in vivo; mice, oral route; read-out: DL50 (limit of error 95%)
measurement_kind: LD50

compound | result
COc1cc(C(=O)OCC(C)c2ccc(CC(C)C)cc2)cc(OC)c1OC (stereo not shown) [AFP 802] | > 4000 mg/kg

----------
# protocol_details: in vivo
# Type: in vivo
# assay_conditions: mouse, in vivo, ip; mice, intraperitoneal route; read-out: DL50 (limit of error 95%)

compound | LD50 [mg/kg]
COc1cc(C(=O)OCC(C)c2ccc(CC(C)C)cc2)cc(OC)c1OC (stereo not shown) [AFP 802] | 1750
